These data points were gathered from patent US8361998B2.

molecular target: human ether-a-go-go-related gene (hERG)-encoded K+ channel (Homo sapiens, UniProt Q12809); assay: hERG inhibition, IonWorks HT, hERG-expressing CHO cells
Sequence (Q12809 whole entry): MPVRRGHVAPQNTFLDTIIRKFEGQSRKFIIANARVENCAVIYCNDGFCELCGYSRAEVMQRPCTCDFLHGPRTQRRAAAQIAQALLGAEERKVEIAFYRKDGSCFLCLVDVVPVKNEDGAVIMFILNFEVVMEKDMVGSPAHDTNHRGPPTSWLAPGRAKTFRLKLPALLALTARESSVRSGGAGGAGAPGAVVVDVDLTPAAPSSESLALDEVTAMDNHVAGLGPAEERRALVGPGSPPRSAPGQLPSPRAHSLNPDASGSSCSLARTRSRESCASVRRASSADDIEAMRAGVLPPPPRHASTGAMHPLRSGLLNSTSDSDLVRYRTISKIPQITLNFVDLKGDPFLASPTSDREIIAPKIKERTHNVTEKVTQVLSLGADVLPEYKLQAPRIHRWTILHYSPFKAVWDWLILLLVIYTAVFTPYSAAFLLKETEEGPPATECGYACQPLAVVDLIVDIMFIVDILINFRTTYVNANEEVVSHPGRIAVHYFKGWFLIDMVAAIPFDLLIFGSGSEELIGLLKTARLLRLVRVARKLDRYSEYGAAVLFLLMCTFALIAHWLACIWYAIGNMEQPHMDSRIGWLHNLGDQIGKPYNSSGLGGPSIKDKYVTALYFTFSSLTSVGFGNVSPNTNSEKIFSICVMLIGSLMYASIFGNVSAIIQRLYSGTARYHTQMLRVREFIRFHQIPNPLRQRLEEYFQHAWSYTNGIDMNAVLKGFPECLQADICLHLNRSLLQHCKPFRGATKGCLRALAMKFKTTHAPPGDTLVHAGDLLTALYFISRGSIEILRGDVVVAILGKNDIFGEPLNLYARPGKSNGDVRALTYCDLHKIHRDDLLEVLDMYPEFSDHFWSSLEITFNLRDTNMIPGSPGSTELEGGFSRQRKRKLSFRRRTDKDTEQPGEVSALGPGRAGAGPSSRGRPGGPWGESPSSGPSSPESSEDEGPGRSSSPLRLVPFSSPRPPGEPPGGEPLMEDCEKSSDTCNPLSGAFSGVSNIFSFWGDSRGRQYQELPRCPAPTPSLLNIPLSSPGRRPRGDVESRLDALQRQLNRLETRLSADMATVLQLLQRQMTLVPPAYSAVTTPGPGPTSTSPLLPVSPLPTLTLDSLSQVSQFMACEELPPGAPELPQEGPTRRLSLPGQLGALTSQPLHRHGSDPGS
Where a name gives a salt, the structure may show the parent alone.

{"columns": ["molecule", "IC50"],
 "data": [
  ["CC(C)[C@@H](CN1CCCC1)N(C)C(=O)c1ccc(Br)cc1", "17 µM"],
  ["Cc1cc(C(=O)N(C)[C@H](CN2CC(O)C2)C2CC2)ccc1F", "> 33 µM"],
  ["CC(C)C[C@@H](CN1CC(O)C1)N(C)C(=O)c1ccc(C#N)cc1F", "> 33 µM"],
  ["CC(C)[C@@H](CN1CCCC1)N(C)C(=O)c1ccc(F)c(Cl)c1", "> 31 µM"],
  ["CCC[C@@H](CN1CC(O)C1)N(C)C(=O)c1ccc(Cl)cc1 [Example 8.2, hydrochloride]", "> 57 µM"],
  ["CN(C(=O)c1ccc(F)c(Cl)c1)[C@H](CN1CC(O)C1)C1CC1", "> 33 µM"],
  ["CN(C(=O)c1ccc(Br)cc1)[C@H](CN1CC(O)C1)C1CC1", "> 33 µM"],
  ["CCC[C@@H](CN1CCC1)N(C)C(=O)c1ccc(Cl)cc1", "20 µM"],
  ["CC(C)[C@@H](CN1CC[C@H](O)C1)N(C)C(=O)c1ccc(Cl)cc1", "> 33 µM"],
  ["Cc1cc(C(=O)N(C)[C@H](CN2CC(O)C2)C(C)C)ccc1F", "> 100 µM"],
  ["CC(C)[C@@H](CN1CCC1)N(C)C(=O)c1ccc(Cl)cc1", "76 µM"],
  ["CC(C)[C@@H](CN1CCCC1)N(C)C(=O)c1ccc(Cl)cc1", "> 30 µM"],
  ["CC(C)C[C@@H](CN1CC(O)C1)N(C)C(=O)c1ccc(F)c(F)c1", "> 33 µM"],
  ["Cc1cc(C(=O)N(C)[C@H](CN2CCCC2)C(C)C)ccc1F", "> 100 µM"],
  ["Cc1cc(C(=O)N(C)[C@H](CN2CCC2)C2CC2)ccc1F", "> 33 µM"],
  ["CCCC[C@@H](CN1CC(O)C1)N(C)C(=O)c1ccc(C#N)cc1", "18 µM"],
  ["CC(C)[C@@H](CN1CCCC1)N(C)C(=O)c1ccc(F)cc1Cl", "> 100 µM"],
  ["CN(C(=O)c1ccc(C#N)cc1)[C@H](CN1CC(O)C1)C1CCC1", "80 µM"],
  ["CCC[C@@H](CN1CC(O)C1)N(C)C(=O)c1ccc(F)c(F)c1", "> 100 µM"],
  ["Cc1cccc(C(=O)N(C)[C@H](CN2CCCC2)C(C)C)c1", "> 33 µM"],
  ["CN(C(=O)c1ccc(Cl)cc1)[C@H](CN1CC(O)C1)C1CC1", "> 33 µM"],
  ["CC[C@@H](CN1CC(O)C1)N(C)C(=O)c1ccc(Cl)cc1", "> 33 µM"],
  ["CCCC[C@@H](CN1CC(O)C1)N(C)C(=O)c1ccc(F)cc1", "79 µM"],
  ["CC[C@H](C)[C@@H](CN1CC(O)C1)N(C)C(=O)c1ccc(C#N)cc1F", "> 33 µM"],
  ["CCC[C@@H](CN1CCC1)N(C)C(=O)c1ccc(F)c(C)c1", "> 33 µM"],
  ["CC(C)[C@@H](CN1CCC1)N(C)C(=O)c1ccc(Br)cc1.O=C(O)CCC(=O)O", "34 µM"],
  ["CCC[C@@H](CN1CC(O)C1)N(C)C(=O)c1ccc(F)cc1", "> 33 µM"],
  ["CC(C)[C@@H](CN1CC(O)C1)N(C)C(=O)c1ccc(Cl)cc1", "> 53 µM"],
  ["CN(C(=O)c1ccc(Cl)cc1)[C@H](CN1CC(O)C1)C1CCC1", "> 33 µM"],
  ["Cc1cc(C(=O)N(C)[C@H](CN2CC(O)C2)C2CCC2)ccc1F", "> 33 µM"],
  ["CC(C)C[C@@H](CN1CC(O)C1)N(C)C(=O)c1ccc(Cl)cc1", "> 33 µM"]
]}
